target: MERS-CoV spike protein (EMC/2012), wt (MERS-CoV (isolate EMC/2012), UniProt K9N5Q8 18-1353); assay: cell-based or functional assay
recorded_endpoint: Neutralization IC50 (M), MERSpp infectivity

binder	number
H2aM15271N (antibody, V domains shown) VH: EVQLVESGGALVQPGGSLRLSCAASGFIFGSYEMNWVRQAPGKGLEWLSYISSSGSTIYYADSVKGRFTISRDNAKNSLYLQMNSLRAEDTAVYYCARERGQLGRGGYYYYGMDVWGQGTTVTVSS VL: EIVLTRSPGTLSLSPGERATLSCRASQSVSSSYLAWYHQKPGQAPRLLMYGTSIRATGIPDRFSGSGSGTDFTLTISRLEPEDFAVYYCQQYGSSPPWTFGQGTKVEIK	2.74e-10
H1M15289N (antibody, V domains shown) VH: QVQLQESGPGLVKPSETLSLTCTVSGGSISSYYWSWIRQPPGKGLEWIGYIYYSGSANYNPSLKSRVTISVDTSKNQFSLKLSSVTAADTAVYYCVRDRDLLLDHWGQGTLVTVSS VL: EIVMTQSPATLSVSPGKRATLSCRASQSVSSNLAWYQQKPGQAPRLLIYGASTRTTGFPARFSGSGSGTDFTLTISSLQSEDFAVYYCQQYNNWPYTFGQGTMLEIK	4.25e-10
H2aM15279N (antibody, V domains shown) VH: EVQLLESGGGLVQTGGSLRLSCAASGFTFSNYAMSWVRQAPGKGLEWVSAISDRGGSIYYADSVKGRFTISRDNSKNTKYLQMDSLRAEDTAVYYCAQDRGFGVFDYWGQGTLVTVSS VL: DIQMTQSPSSLSASVGDRVTITCQASQDIGNYLNWFQQRPGKAPNLLIYGASNLETGVPSRFSGGGSGTDFTFTISSLQPEDIATYFCQQYDNLPFTFGPGTKVEIK	1.38e-10
H2aM15287N (antibody, V domains shown) VH: QLQLQESGPGLVKPSETLSLTCTVSGGSISSGNYYWGWIRQPPGKGLEWFGTIYYSGSTYYNPSLKSRVTISVDTSKNQFSLKLSSVTAADTAVYYCARRAAVGHFDYWGQGTLVTVSS VL: DIQMTQSPSTLSASVGDRVTITCRASQSISTWLAWYQQKPGKAPKLLIYEASSLESGVPSRFSGSGFGTEFTLTISRLQPDDFATYFCQQYNTYWTFGQGTKVEIK	3.59e-09
H2bM15292N (antibody, V domains shown) VH: QVQLVQSGAEVKKPGSSVKVSCKASGGTFNNYAISWVRQAPGQGLEWMGGIIPFFGTTNYAQKFQDRVTITSDDSTITAYMELSRLRSEDTAVYYCARDEPRRDGYNYYHYYYMDVWGQGTTVTVSS VL: DIQMTQSPSSLSASVGDRVTITCRASQSINSYLNWYQQKPGKAPNLLIYAASSLQSGVPSRFSGSGSGTDFTLTISSLHPEDFATYYCQQSYSTPPITFGQGTRLEIK	3.57e-10
H1M15269N (antibody, V domains shown) VH: EVQLLESGGGLVQPGGSLRLSCPASGFTFSNYAMTWVRQAPGKGLEWVSAISGSGATTKYADSVKGRFTISRDNSRNTLYLQMNSLRAEDTAVYYCAKGGSGSYFPYYYYGLDVWGQGTTVTVSS VL: EIVMTQSPATLSVSPGDSATLSCRASQTVSSNLAWYQQKPGQAPRLLIYGASTRATGIPARFSGSGSGTEFTLTISSLQSEDFAVYYCQQYYNWWTFGQGTKVEIK	1.02e-09
H2aM15278N (antibody, V domains shown) VH: QVQLVQSGAEVKKPGASVKVSCKASGYTFTSHGISWVRQAPGQGFEWMGWIGTYNSNTDYAQNFQGRVTMTTDTSTSTAYMELRNLRSDDTAVYYCARERGPYYGMDVWGQGTTVTVSS VL: EIVLAQSPGTLSLSPGERATLSCRASQSVNSNYLAWYQQKPGQAPRLLIYGASSRATGIPDRFSGSGSGTDFTLTISRLEPEDFAVYYCQQYGNSLTFGPGTKVDFK	2.11e-10
H2aM15270N (antibody, V domains shown) VH: EVQLLESGGGLEQPGGSLRLSCAASGFTFSSYAMIWVRQAPGKGLEWVSTISGSGVNTYYADSVKGRFTISRDNSKNTLHLQMNSLRAEDTAVYHCAKEGLDCANGVCYNYYGMDVWGQGTTVTVSS VL: DIQMTQSPSSLSASVGDRVTITCRASQSINSFLNWYHQKPGKAPKFLIYSASNLQSGVPSRFSGSGSGTDFTLTISSLQPEDFSTYYCQQSYSIPLTFGGGTKVEIK	3.25e-10
